Target: IL-17A(FLAG-Tagged): IL-17RA(His-Tagged) (Homo sapiens, UniProt Q16552, K93Q)
Sequence (Q16552 with tags, fused parts or gaps K93Q): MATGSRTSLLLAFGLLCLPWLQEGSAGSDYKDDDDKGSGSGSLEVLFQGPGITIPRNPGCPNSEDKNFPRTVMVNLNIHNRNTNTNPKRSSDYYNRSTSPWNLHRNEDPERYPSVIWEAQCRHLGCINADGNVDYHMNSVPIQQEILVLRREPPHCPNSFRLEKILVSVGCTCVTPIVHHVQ
Experiment: IL-17A(FLAG-Tagged): IL-17RA(His-Tagged) Binding Disruption Eu-HTRF Assay
Details: IL-17A/IL-17RA binding disruption, simple average if tested more than once
Listing of recorded log10(IC50) by entry.
Give log10 of IC50, with IC50 taken in nM.

Completed entries (count: 2):
# compound, tested_on, test_value
records = [
    ("Cc1nonc1C(=O)N[C@H](c1cn2ncc(C(CC#N)NC(=O)CC3CC(F)(F)C3)cc2n1)C1CCC(F)(F)CC1 (single isomer, unassigned) [Example 446]", "IL-17A(FLAG-Tagged): IL-17RA(His-Tagged) (Homo sapiens, UniProt Q16552, K93Q)", 2.85),
    ("COc1conc1C(=O)N[C@H](c1cn2ncc([C@H](NC(=O)CCC(F)(F)F)C3CC3)cc2n1)C1CCC(F)(F)CC1", "IL-17A(FLAG-Tagged): IL-17RA(His-Tagged) (Homo sapiens, UniProt Q16552, K93Q)", 2.08),
]

Briefly, log10(IC50) measured for O=C(CCC(F)(F)F)N[C@@H](c1cnn2cc([C@@H](NC(=O)c3ncnn3CC3CC3)C3CCC(F)(F)CC3)nc2c1)C1CC1 : 2.04

Reported log10(IC50) for [2H]C([2H])([2H])C([2H])([2H])n1nccc1C(=O)N[C@H](c1cn2ncc(C(COCC)NC(=O)CC3CC(F)(F)C3)cc2n1)C1CCC(F)(F)CC1 (single isomer, unassigned) [Example 531] was 2.34

Entry Cc1ccncc1C(=O)N[C@H](c1cn2ncc([C@H](NC(=O)CCC(F)(F)F)C3CC3)cc2n1)C1CCC(F)(F)CC1 , log10(IC50) reported as 3.15

----------
The reader will find reported pIC50 values listed item by item below.
Target: IL-17A(FLAG-Tagged): IL-17RA(His-Tagged) (Homo sapiens, UniProt Q16552, K93Q)
Experiment: IL-17A(FLAG-Tagged): IL-17RA(His-Tagged) Binding Disruption Eu-HTRF Assay
Settings: IL-17A/IL-17RA binding disruption, simple average if tested more than once
The read-out pIC50 is expressed as -log10 of concentration in moles per litre.

# count of solved cases: 5
# compound, pIC50
records = [
    ("O=C(CC1(C(F)(F)F)CC1)N[C@@H](c1cnn2cc([C@@H](NC(=O)c3nonc3C3CC3)C3CCC(F)(F)CC3)nc2c1)C1CC1", 7.51),
    ("O=C(CC1CC(F)(F)C1)NC(c1cnn2cc([C@@H](NC(=O)c3nonc3C3CC3)C3CCC(F)(F)CC3)nc2c1)C(F)(F)F (single isomer, unassigned)", 7.01),
    ("Cc1nonc1C(=O)N[C@H](c1cn2ncc([C@H](NC(=O)[C@@H]3CNC[C@H]3C(F)(F)F)C3CC3)cc2n1)C1CCC(F)(F)CC1 (relative stereo)", 6.28),
    ("O=C(CCC(F)(F)F)N[C@@H](c1cnn2cc([C@@H](NC(=O)c3cnccn3)C3CCC(F)(F)CC3)nc2c1)C1CC1", 5.54),
    ("Cc1nonc1C(=O)N[C@H](c1cn2ncc([C@H](NC(=O)COC(F)(F)F)C3CC3)cc2n1)C1CCC(F)(F)CC1", 6.74),
]

// next item, pIC50 requested
Log: IL-17A(FLAG-Tagged): IL-17RA(His-Tagged) (Homo sapiens, UniProt Q16552, K93Q), compound O=C(CCC(F)(F)F)N[C@@H](c1cnn2cc([C@@H](NC(=O)c3cccc(OCC4CC4)c3)C3CCC(F)(F)CC3)nc2c1)C1CC1 , pIC50 = 6.89
